# key: entry, value: pIC50
study_system: 5-lipoxygenase (Rattus norvegicus)
Construct: endogenous in cells
Sequence (P12527 whole entry): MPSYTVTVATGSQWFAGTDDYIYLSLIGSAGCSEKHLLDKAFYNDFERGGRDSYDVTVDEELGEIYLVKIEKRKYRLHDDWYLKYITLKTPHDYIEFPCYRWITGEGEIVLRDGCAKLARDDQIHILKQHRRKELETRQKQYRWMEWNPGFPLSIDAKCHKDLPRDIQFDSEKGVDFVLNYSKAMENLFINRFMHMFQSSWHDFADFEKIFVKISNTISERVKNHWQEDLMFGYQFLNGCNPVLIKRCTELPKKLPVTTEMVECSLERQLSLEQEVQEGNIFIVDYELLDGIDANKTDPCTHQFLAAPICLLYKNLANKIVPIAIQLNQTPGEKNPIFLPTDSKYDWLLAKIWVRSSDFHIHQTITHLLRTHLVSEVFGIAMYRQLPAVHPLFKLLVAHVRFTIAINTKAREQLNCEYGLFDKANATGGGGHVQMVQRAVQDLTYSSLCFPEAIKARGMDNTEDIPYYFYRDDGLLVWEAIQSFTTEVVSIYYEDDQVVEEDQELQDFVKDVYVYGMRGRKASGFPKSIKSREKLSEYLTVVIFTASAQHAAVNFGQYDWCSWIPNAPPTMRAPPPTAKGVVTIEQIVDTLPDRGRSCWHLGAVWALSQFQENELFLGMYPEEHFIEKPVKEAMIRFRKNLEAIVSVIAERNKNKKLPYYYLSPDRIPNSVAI
assay_procedure: 5-lipoxygenase inhibition in vitro, RBL-1 cell supernatant as enzyme source
run_parameters: 10,000 xg supernatant of homogenized rat basophilic leukemia (RBL-1) cells, pH 7.0 phosphate buffer, 14C-arachidonic acid, 37°, two minutes
pIC50: −log10 of the molar value.
measured_attribute: pIC50

smiles_repr=CN(C)CCCC(=O)Oc1c(Cc2ccccc2)ccc2ccccc12 study_system="5-lipoxygenase (Rattus norvegicus)" val=6.28
smiles_repr=CC(=O)Oc1ccc(Cc2ccc3ccccc3c2OC(C)=O)cc1OC(C)=O study_system="5-lipoxygenase (Rattus norvegicus)" val=5.80
smiles_repr=CC(=O)Oc1c(Cc2ccccc2)ccc2ccccc12 study_system="5-lipoxygenase (Rattus norvegicus)" val=6.85
smiles_repr=CC(=O)Oc1c(Cc2ccc3c(c2)OCO3)ccc2ccccc12 study_system="5-lipoxygenase (Rattus norvegicus)" val=6.72
smiles_repr=CC(=O)Oc1c(Cc2cccc(F)c2)ccc2ccccc12 study_system="5-lipoxygenase (Rattus norvegicus)" val=7.21
smiles_repr=CC(=O)Oc1c(Cc2ccc(N(C)C)cc2)ccc2ccccc12 study_system="5-lipoxygenase (Rattus norvegicus)" val=6.09
smiles_repr=COc1ccc(Cc2ccc3ccccc3c2OC(C)=O)cc1 study_system="5-lipoxygenase (Rattus norvegicus)" val=7.05
smiles_repr=O=C(O)CCC(=O)Oc1c(Cc2ccccc2)ccc2ccccc12 study_system="5-lipoxygenase (Rattus norvegicus)" val=6.28
smiles_repr=CCOC(=O)Oc1c(Cc2ccccc2)ccc2ccccc12 study_system="5-lipoxygenase (Rattus norvegicus)" val=5.92
smiles_repr=COc1ccc(Cc2ccc3ccccc3c2OC(C)=O)cc1OC study_system="5-lipoxygenase (Rattus norvegicus)" val=6.24
smiles_repr=CC(=O)Oc1c(Cc2cccs2)ccc2ccccc12 study_system="5-lipoxygenase (Rattus norvegicus)" val=7.15
